target: Peroxisome proliferator-activated receptor alpha (Homo sapiens, UniProt Q07869)
Sequence (Q07869 whole entry, the tested form may be a part): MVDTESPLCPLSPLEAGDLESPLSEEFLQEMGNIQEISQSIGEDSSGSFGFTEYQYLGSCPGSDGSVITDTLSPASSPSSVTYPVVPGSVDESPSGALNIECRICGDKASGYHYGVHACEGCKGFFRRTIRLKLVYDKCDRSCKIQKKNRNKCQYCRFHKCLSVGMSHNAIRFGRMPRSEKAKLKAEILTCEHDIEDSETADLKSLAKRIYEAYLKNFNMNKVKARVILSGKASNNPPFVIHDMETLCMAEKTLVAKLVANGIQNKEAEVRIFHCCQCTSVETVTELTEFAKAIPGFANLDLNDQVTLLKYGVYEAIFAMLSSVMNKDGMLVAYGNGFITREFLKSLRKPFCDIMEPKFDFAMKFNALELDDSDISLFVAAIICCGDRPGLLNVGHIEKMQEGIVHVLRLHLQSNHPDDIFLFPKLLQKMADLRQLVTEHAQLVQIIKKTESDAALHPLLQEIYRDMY
test-summary: Activation of human PPARalpha ligand binding domain expressed in COS7 cells by luciferase reporter gene assay
quantity-kind: pIC50
Lab note — pIC50 values are minus log10 of concentrations in M.

See these solved cases before continuing.
>  <compound>
CCCCCCC(Sc1nc(Cl)cc(Nc2ccc(-c3ccc(C#N)cc3)cc2)n1)C(=O)O (stereo not drawn)

>  <target>
Peroxisome proliferator-activated receptor alpha (Homo sapiens, UniProt Q07869)

>  <pIC50>
6.72

$$$$
>  <compound>
CCCCCCC(Sc1nc(Cl)cc(Nc2ccc3ncccc3c2)n1)C(=O)O (stereo not drawn)

>  <target>
Peroxisome proliferator-activated receptor alpha (Homo sapiens, UniProt Q07869)

>  <pIC50>
5.66

$$$$

API: the following record is the query input.
IN: Entry CCCCCCC(Sc1nc(Cl)cc(Nc2cccc(C)c2C)n1)C(=O)O (stereo not drawn) has what pIC50?
OUT: 6.00

---

target: Prostaglandin E synthase (Homo sapiens)
Sequence (O14684 whole entry): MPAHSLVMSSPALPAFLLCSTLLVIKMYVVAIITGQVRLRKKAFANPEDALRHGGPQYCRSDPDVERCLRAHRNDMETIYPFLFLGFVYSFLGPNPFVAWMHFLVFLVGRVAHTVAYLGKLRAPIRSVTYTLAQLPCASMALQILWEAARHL
test-summary: Inhibition of mPGES-1 in human A549 cells microsomes assessed as reduction in PGE2 formation by RP-HPLC assay
pIC50: −log10 of the molar value.
quantity-kind: pIC50

IN: Entry CCCCCCC(Sc1nc(Cl)cc(Nc2nc(-c3ccc(C(=O)O)cc3)cs2)n1)C(=O)O (stereo unspecified) has what pIC50?
OUT: < 5.00

---

In this section we review reported pEC50 values for a set of molecules.
target: Peroxisome proliferator-activated receptor gamma (Homo sapiens)
Sequence (P37231 whole entry, the tested form may be a part): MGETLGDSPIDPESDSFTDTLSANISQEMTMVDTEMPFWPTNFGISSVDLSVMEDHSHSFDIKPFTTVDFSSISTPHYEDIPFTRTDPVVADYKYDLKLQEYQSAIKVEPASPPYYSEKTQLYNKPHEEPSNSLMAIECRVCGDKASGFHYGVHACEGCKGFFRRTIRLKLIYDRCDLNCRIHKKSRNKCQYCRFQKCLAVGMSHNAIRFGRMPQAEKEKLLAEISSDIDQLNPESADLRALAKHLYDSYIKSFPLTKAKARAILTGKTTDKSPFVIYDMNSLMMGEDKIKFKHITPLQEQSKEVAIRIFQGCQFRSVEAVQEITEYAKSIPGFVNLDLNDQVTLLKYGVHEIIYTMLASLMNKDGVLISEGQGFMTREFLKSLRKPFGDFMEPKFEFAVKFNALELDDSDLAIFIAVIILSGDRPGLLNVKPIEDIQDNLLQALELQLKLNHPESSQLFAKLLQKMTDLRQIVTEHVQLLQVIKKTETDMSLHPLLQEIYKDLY
test-summary: Activation of human PPARgamma ligand binding domain expressed in COS7 cells by luciferase reporter gene assay
Lab note — pEC50 values are minus log10 of concentrations in M.

>  <molecule>
CCCCCCC(Sc1nc(Cl)cc(Nc2nc(-c3ccc(Cl)cc3)cs2)n1)C(=O)O (centres undefined)

>  <quantity-kind>
pEC50

>  <value-measured>
5.19

$$$$
>  <molecule>
CCCCCCC(Sc1nc(Cl)cc(Nc2nc(-c3ccc(Br)cc3)c(C)s2)n1)C(=O)O (centres undefined)

>  <quantity-kind>
pEC50

>  <value-measured>
5.42

$$$$
>  <molecule>
CCCCCCC(Sc1nc(Cl)cc(Nc2nc(-c3ccc(F)c(F)c3)cs2)n1)C(=O)O (centres undefined)

>  <quantity-kind>
pEC50

>  <value-measured>
5.54

$$$$
>  <molecule>
CCCCCCC(Sc1nc(Cl)cc(Nc2nc(-c3ccccc3)cs2)n1)C(=O)O (centres undefined)

>  <quantity-kind>
pEC50

>  <value-measured>
5.24

$$$$

IN: What value of pEC50 on Peroxisome proliferator-activated receptor gamma (Homo sapiens) does CCCCCCC(Sc1nc(Cl)cc(Nc2nc(-c3ccc4c(c3)CCCC4)cs2)n1)C(=O)O (centres undefined) have?
OUT: 5.39

IN: What value of pEC50 on Peroxisome proliferator-activated receptor gamma (Homo sapiens) does CCC(Sc1nc(Cl)cc(Nc2nc(-c3ccc(Cl)cc3)cs2)n1)C(=O)O (centres undefined) have?
OUT: 5.41

IN: What value of pEC50 on Peroxisome proliferator-activated receptor gamma (Homo sapiens) does CCCCCCC(Sc1nc(Cl)cc(Nc2nc(-c3ccc4ccccc4c3)cs2)n1)C(=O)O (centres undefined) have?
OUT: 5.89

IN: What value of pEC50 on Peroxisome proliferator-activated receptor gamma (Homo sapiens) does CCCCCCC(Sc1nc(Cl)cc(Nc2nc(-c3ccc([N+](=O)[O-])cc3)cs2)n1)C(=O)O (centres undefined) have?
OUT: 5.47

IN: What value of pEC50 on Peroxisome proliferator-activated receptor gamma (Homo sapiens) does CCCCCCC(Sc1nc(Cl)cc(Nc2nc(-c3ccc(F)cc3F)cs2)n1)C(=O)O (centres undefined) have?
OUT: 5.44
